Reported fluorescence slope by item:
ASSAY_SYSTEM: Voltage-gated potassium channel subunit beta-2 (Rattus norvegicus) (UniProt P62483)
Sequence (P62483 whole entry, looked up): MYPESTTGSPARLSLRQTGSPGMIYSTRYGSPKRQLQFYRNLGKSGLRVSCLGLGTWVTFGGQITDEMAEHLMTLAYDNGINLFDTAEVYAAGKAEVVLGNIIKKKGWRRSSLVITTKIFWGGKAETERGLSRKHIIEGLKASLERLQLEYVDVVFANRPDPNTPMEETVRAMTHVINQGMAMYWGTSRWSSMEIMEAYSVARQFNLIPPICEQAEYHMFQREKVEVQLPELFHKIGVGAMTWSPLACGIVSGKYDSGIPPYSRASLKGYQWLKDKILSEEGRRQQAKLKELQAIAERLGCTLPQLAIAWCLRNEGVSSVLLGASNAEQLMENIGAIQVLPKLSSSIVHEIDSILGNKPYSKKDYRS
EXPERIMENTAL_PROTOCOL: inhibitors of rat Kvbeta2 reductase activity – biochemical, NADPH fluorescence, primary screen (AID 622);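 also: slope of raw intensity against log time taken from 70 to 1610 s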
TEST_CONDITIONS: recombinant KvBeta, 4-cyanobenzaldehyde reduction, at 10 µM, stronger effect = higher value
A bare number is all that is needed in reply.

-- ask Please tell me: fluorescence slope of "Nc1nc(SCCOc2ccccc2)n[nH]1" , system Voltage-gated potassium channel subunit beta-2 (Rattus norvegicus) (UniProt P62483)?
-- reply -0.571

###

EXPERIMENTAL_PROTOCOL: reduction of polyQ htt aggregates in cells – imaging, exon1htt(103Q)mCFP cells, high-content imaging, primary screen (AID 483);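 also: compound exposure lasted 3 days before fixation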
TEST_CONDITIONS: exon1htt(103Q)mCFP cell line, aggregate imaging, at 2 µM; stronger effect = higher value
# reported inhibition of aggregation; entries follow
Kindly answer with a numeric value in %, unit omitted.

{"MOLECULE": "O=C1NC(=O)C(c2ccccc2)(c2ccccc2)N1", "MEASURED_NUMBER": -21.7}

-- ask Consider the molecule shown here: O=C1c2ccccc2NC(c2ccco2)N1O (centres undefined) What is its recorded inhibition of aggregation?
-- reply -3.7

-- ask Same read-out for "N=c1c(C(=O)NCc2ccc(F)cc2)cc2c(=O)n3ccccc3nc2n1CCCN1CCOCC1" ?
-- reply -26.3

-- ask And what about the molecule "Cc1ccc(S(=O)(=O)NCCCNC(=O)N2CCOCC2)cc1" ?
-- reply 1.3

-- ask Can you handle "COc1ccc(NC(=O)Nc2cc(C)ccc2OC)cc1" next?
-- reply -1.8

-- ask # iterate: "Cc1cc(-c2ccccc2)c2c3c(cn2n1)c(=O)n(C)c(=O)n3C"
-- reply -0.2

-- ask What about "Cc1cc(C)n(CCCNC(=O)c2ccc(S(=O)(=O)NCc3ccco3)cc2)n1" ?
-- reply -3.9

-- ask Record: "CC(C)NC(=O)NC(=O)COc1cccc2c1OC(C)(C)C2"
-- reply -13.5

-- ask Quick one: "CCS(=O)(=O)N1CCC(C(=O)NCc2cccs2)CC1"
-- reply 12.4

-- ask Next molecule up: "COc1cc(OC)cc(-c2nc3nc(C)c(CCC(=O)O)c(C)n3n2)c1"
-- reply 0.2

-- ask Follow-up item: CN1CCN(CCCNC(=O)C2CC(=O)N(C3CCCCC3)C2)CC1 (centres undefined)
-- reply 2.4

-- ask Similarly, "CCOC(=O)C1CCN(C(=O)c2c(-c3c(Cl)cccc3Cl)noc2C)CC1" ?
-- reply 20.9

-- ask Next: "CC(C)[C@H](NC(=O)OC(C)(C)C)c1nnc(S(=O)(=O)Cc2c(F)cccc2Cl)o1"
-- reply -0.1

-- ask Now consider "CCOc1cc(C(=O)N2CCN(c3ccccc3)CC2)cc(OCC)c1OCC" .
-- reply 39.7

-- ask Quick one: O=C(O)CC1CCCC(c2ccccc2)C1=O (centres undefined)
-- reply -35

-- ask What do we get for "CCOc1ccc2c(c1)sc1nc(C(=O)OC)cc(=O)n12" ?
-- reply -10.2

-- ask Next entry: "O=c1c2ccccc2sn1-c1ccc(S(=O)(=O)N2CCCCC2)cc1"
-- reply -8.4

-- ask What about this molecule? "Cc1nc(SCC(=O)N2CCC(C(N)=O)CC2)n[nH]1"
-- reply -2.4

-- ask Next: "C=C(C)CSc1nnc(-c2cccc(S(=O)(=O)N(C)C)c2)n1-c1cc(OC)ccc1OC"
-- reply 31.2

###

ASSAY_SYSTEM: Voltage-gated potassium channel subunit beta-2 (Rattus norvegicus) (UniProt P62483)
EXPERIMENTAL_PROTOCOL: inhibitors of rat Kvbeta2 reductase activity – biochemical, NADPH fluorescence, primary screen (AID 622);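 also: slope of raw intensity against log time taken from 70 to 1610 s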
TEST_CONDITIONS: recombinant KvBeta, 4-cyanobenzaldehyde reduction, at 10 µM, stronger effect = higher value
The source made the active and inactive calls.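 How the source made its calls: active means fluorescence slope higher than the sample average by over 3 SD (cut at about -0.22 in these data, passing the limit was not always enough); inactive means the rest.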
RECORDED_METRIC: fluorescence slope

-- ask I'd like to know its fluorescence slope. The compound in question is "COCCn1c(N)c(C(=O)Nc2sc3c(c2C(=O)OC)CCCC3)c2nc3ccccc3nc21"
-- reply -0.57 (inactive)

-- ask Next compound: "O=c1c2c(nc3nc(COc4ccccc4)[nH]n13)CCC2"
-- reply -0.539 (inactive)

###

ASSAY_SYSTEM: Muscarinic acetylcholine receptor M4 (Homo sapiens)
EXPERIMENTAL_PROTOCOL: M4-linked GIRK flux change, two-sided – cell-based, HEK293 M4/GIRK, thallium flux, BTC-AM, M4 allosteric agonist project, primary screen (AID 625);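 also: thallium influx through GIRK channels coupled to M4 in HEK293 cells with BTC-AM dye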
TEST_CONDITIONS: at 10 µM, actives lie on both sides
Classify by measured fluorescence slope: 1.0 if it is equal to or exceeds 0.006, 0.0 if it is smaller.

{"COMPOUND": "COc1cccc(N2CCN(c3ncnc4c3[nH]c3ccccc34)CC2C)c1 (configuration not stated)", "CLASS": 0.0}
{"COMPOUND": "Cc1ccccc1CS(=O)(=O)Cc1ccc(C(=O)NCCCN2CCOCC2)o1", "CLASS": 1.0}
{"COMPOUND": "O=C(NC1CCCCC1)C1CC(O)CN1C(=O)OCc1ccccc1 (configuration not stated)", "CLASS": 0.0}
{"COMPOUND": "ON1C2CCCCC2N(O)C1c1c(F)c(F)c(F)c(F)c1F (configuration not stated)", "CLASS": 0.0}
{"COMPOUND": "COc1cc(NC(=O)c2cc(-n3cnnc3)ccc2Cl)cc(OC)c1", "CLASS": 0.0}

-- ask Identify whether the reported fluorescence slope of the following compound is 0.006 or greater: CCN1CCCC1CNCc1ccc(Cl)cc1Cl (configuration not stated)
-- reply 1.0

-- ask Same read-out for "O=C(CN1C(=O)CC(c2ccccc2)=Nc2ccccc21)NCc1ccco1" ?
-- reply 0.0

-- ask Now this one: "O=C1CCCc2c1cc(C(=O)NCc1ccco1)c(=O)n2-c1ccc(Cl)cc1"
-- reply 0.0

-- ask Follow-up item: "COC(=O)c1c(-c2ccc(F)cc2)noc1N"
-- reply 1.0

-- ask Now the compound "Cc1cc(NC(=O)c2cnn3cccnc23)no1"
-- reply 1.0

-- ask Proceed to "O=C(CSc1nc2ccccc2n1CC(=O)N1CCCC1)Nc1nccs1"
-- reply 0.0

-- ask Same lookup for "O=C(O)c1ccccc1C(=O)Nc1ccccc1" , please.
-- reply 0.0

-- ask Note, next up: "COc1cccc(CNC(=O)CCn2c(=O)oc3ccccc32)c1"
-- reply 0.0

###

EXPERIMENTAL_PROTOCOL: endothelial E-selectin expression blockers – imaging, HUVEC, immunofluorescence, MLSMR starter and 10KST1 sets, primary screen (AID 487);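 also: 100% = median nuclei count of all wells on the same plate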
TEST_CONDITIONS: HUVEC TNFalpha-induced E-selectin immunofluorescence imaging, at 2 µM; measured here: cell number, toxicity
RECORDED_METRIC: nuclei count

{"COMPOUND": "N#CCSCC(=O)Nc1ccc(F)cc1", "RESULT": "99.2%"}

-- ask Report nuclei count for "O=C(CSc1ncnc2ccccc12)N1CCN(c2ccccc2)CC1" please.
-- reply 108%

-- ask Now the compound "Cc1cc(NC(=O)CSc2nnc(C3CC3)n2C)no1"
-- reply 93.5%

-- ask Also need CN(C(=O)COC(=O)C1CCN(S(=O)(=O)c2cccs2)CC1)C1CCS(=O)(=O)C1 (centres undefined) , thanks.
-- reply 120%

-- ask Also "COC(=O)c1cc(Oc2ccc(C(=O)OC)cc2N)cc(C(=O)OC)c1" ?
-- reply 108%

-- ask Param item: "CCOC(=O)Cc1nn2c(=O)cc(C)nc2s1"
-- reply 94.9%

-- ask // same read-out, input: CSc1ccccc1C(=O)NC1CC2CCC1C2 (centres undefined)
-- reply 91.1%

-- ask Please answer likewise for CC(=O)N1CCc2cc(S(=O)(=O)NC(C(=O)NCc3ccccc3)C(C)C)ccc21 (centres undefined)
-- reply 94.8%

-- ask Entry to check: "Cn1c(Cc2ccccc2)nnc1SCC(=O)NC1CCCCC1"
-- reply 120%

-- ask Queued: O=C(NCC1COCCO1)C1CCN(S(=O)(=O)c2ccccc2)CC1 (centres undefined)
-- reply 112%

-- ask Also, CCn1c(C(=O)N2CCCC(C(=O)O)C2)cc2sccc21 (centres undefined) please.
-- reply 115%

-- ask And O=C(COC(=O)c1ccc(NS(=O)(=O)c2ccc3c(c2)OCCO3)cc1)NCC1CCCO1 (centres undefined) ?
-- reply 100%

###

EXPERIMENTAL_PROTOCOL: inhibitors of TNFa-induced NFkB p65 translocation, primary screen, imaging, HUVEC, MLSMR starter and 10KST1 sets (AID 438);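 also: compound added about 3h40 before a 20 min TNFalpha stimulation; signal is the nuclear over cytoplasmic p65 intensity ratio per well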
TEST_CONDITIONS: HUVEC TNFa-induced p65 nuclear translocation; at 2 µM, stronger effect = higher value, 0% TNFa-plus-vehicle, 100% no-TNFa wells
RECORDED_METRIC: inhibition (%)
Answer format: numeric, % implied, no suffix.

{"MOLECULE": "O=c1c2c3c(sc2nc2sc(C4CC4)nn12)CCCC3", "MEASURED_NUMBER": -8.3}
{"MOLECULE": "CCCCn1cnc2c(cnn2-c2ccc(Cl)cc2)c1=O", "MEASURED_NUMBER": -16.3}
{"MOLECULE": "O=C(NC12CC3CC(CC(C3)C1)C2)C1CCCN1C(=O)NC1CCCCC1 (configuration not stated)", "MEASURED_NUMBER": -1.3}
{"MOLECULE": "Cc1cc2ncc(C(=O)Nc3ccccc3)c(C)n2n1", "MEASURED_NUMBER": 4.2}
{"MOLECULE": "CSc1nnc(-c2cnccn2)n1C", "MEASURED_NUMBER": -15.7}

-- ask Please give the measured inhibition for this molecule: CCC(c1nnc(SCC(=O)NCC2CCCO2)n1Cc1ccccc1)N(C)C (configuration not stated)
-- reply -5.7

-- ask Next up: "O=C(COc1nnnc2ccccc12)N1CCCc2ccccc21"
-- reply 0.2

-- ask Next entry: "O=C(CSc1nnc(-c2cccnc2)o1)Nc1ccccn1"
-- reply 3.2

-- ask Please give the result for O=C(O)C1C2CCC(O2)C1C(=O)Nc1cccc(F)c1 (configuration not stated) too.
-- reply -2

-- ask Same lookup for "CN(C)CC(=O)N1c2ccccc2CCc2ccc(NC(=O)c3ccc(N)cc3)cc21" , please.
-- reply -15.6

-- ask Field entry: "O=C1CN(c2ccccc2F)C(=O)CN1c1ccccc1F"
-- reply -2.3

-- ask Moving on to "Cn1nc(-c2ccc(C(=O)N3CCN(c4ccccc4)CC3)cc2)c2ccccc2c1=O"
-- reply -4

Hello, the source for this data is PubChem BioAssay, in case you need it.
